target: STK10 (Homo sapiens); test: biochemical
Sequence (O94804 36-294 limits assumed): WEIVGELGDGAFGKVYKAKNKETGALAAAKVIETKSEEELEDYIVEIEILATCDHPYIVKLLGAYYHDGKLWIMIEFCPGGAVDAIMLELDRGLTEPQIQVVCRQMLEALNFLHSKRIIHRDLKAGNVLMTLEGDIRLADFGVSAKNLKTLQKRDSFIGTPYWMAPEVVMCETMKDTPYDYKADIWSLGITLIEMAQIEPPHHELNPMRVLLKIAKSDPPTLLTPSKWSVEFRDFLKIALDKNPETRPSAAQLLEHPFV
pKi: −log10 of the molar value.
measured.property: pKi

Examples from the recorded data:
response.value for C#Cc1cccc(Nc2ncnc3ccc(Cl)cc23)c1 [compound 58, 58] (field: pKi) = 5.55

Record C#Cc1cccc(Nc2ncnc3cc(F)ccc23)c1 [compound 62, 62] , field pKi: 5.92

Sample C#Cc1cccc(Nc2ncnc3cc(OC)ccc23)c1 [compound 72, 72] ; pKi observed: 6.34

(I) C#Cc1cccc(Nc2ncnc3ccccc23)c1 [compound 54, 54]
(II) C#Cc1cccc(Nc2ncnc3cc4c(cc23)OCCO4)c1 [compound 74, 74]
Request: // which entry has the larger pKi value, I or II ? Let me know the label of the one you choose.
Result: II

---

target: GAK (Homo sapiens); test: biochemical
Sequence (O14976 12-347 limits assumed): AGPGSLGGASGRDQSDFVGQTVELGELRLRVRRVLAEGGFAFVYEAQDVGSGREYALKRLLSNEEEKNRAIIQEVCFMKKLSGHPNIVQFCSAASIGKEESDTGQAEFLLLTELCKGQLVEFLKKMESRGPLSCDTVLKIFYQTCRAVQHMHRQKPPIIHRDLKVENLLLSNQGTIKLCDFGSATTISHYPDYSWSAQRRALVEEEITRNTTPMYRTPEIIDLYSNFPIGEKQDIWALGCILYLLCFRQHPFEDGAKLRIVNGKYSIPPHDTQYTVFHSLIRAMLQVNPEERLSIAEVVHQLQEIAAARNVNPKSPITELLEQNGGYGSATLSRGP
pKi: −log10 of the molar value.
measured.property: pKi

(I) C#Cc1cccc(Nc2ncnc3cc(I)ccc23)c1F [compound 92, 92]
(II) C#Cc1ccc(F)c(Nc2ncnc3ccc(I)cc23)c1 [compound 95, 95]
Request: Lower pKi: I or II ? Your answer should be the label attached to the chosen record.
Result: II

---

target: STK10 (Homo sapiens); test: biochemical; details: read-out: STK10 Ki; binder
measured.property: Ki (nM)
Quick reminder: number only, in nM, skip the unit.

// Ki value for COc1cc2ncc(C#N)c(Nc3cc(OC)c(OC)c(OC)c3)c2cc1OC [compound 48, 48] : 420

---

target: SLK (Homo sapiens, UniProt Q9H2G2); assay: biochemical
Sequence (Q9H2G2 34-292): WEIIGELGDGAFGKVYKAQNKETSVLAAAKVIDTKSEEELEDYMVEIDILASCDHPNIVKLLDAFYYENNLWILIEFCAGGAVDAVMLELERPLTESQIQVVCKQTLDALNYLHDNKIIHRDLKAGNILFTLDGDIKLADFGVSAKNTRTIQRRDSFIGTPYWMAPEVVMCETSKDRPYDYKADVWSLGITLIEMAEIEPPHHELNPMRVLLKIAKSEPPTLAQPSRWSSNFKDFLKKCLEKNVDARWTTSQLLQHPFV
measured.property: Ki (nM)

In plain terms, "C#Cc1cccc(Nc2c(C#N)cnc3ccc(Br)cc23)c1" has a documented Ki of 1200

Briefly, Ki measured for "C#Cc1cccc(Nc2c(C#N)cnc3cc(Cl)ccc23)c1" : 180

# Ki (compound: "C#Cc1cccc(Nc2c(C#N)cnc3cc(Br)ccc23)c1" ) is 160

Ki recorded for this compound, "C#Cc1cccc(Nc2c(C#N)cnc3ccc(Cl)cc23)c1" , is 710

(I) C#Cc1cccc(Nc2c(C#N)cnc3ccccc23)c1
(II) C#Cc1cccc(Nc2c(C#N)cnc3ccc(F)cc23)c1
(III) C#Cc1cccc(Nc2c(C#N)cnc3ccc(I)cc23)c1
Request: Which order do these items take when sorted by rising Ki? List them. Quick reminder: the answer is the labels in the order asked.
Result: I, II, III
(I: 350 nM, II: 540 nM, III: 1100 nM)

---

biological target: GAK (Homo sapiens); assay: biochemical
pKi: −log10 of the molar value.
measured.property: pKi

See these solved cases before continuing.
With GAK (Homo sapiens) as the test system, COc1ccc2c(Nc3cc(OC)c(OC)c(OC)c3)c(C#N)cnc2c1 [compound 53, 53] showed pKi of 8.70

The compound COc1cc(Nc2c(C#N)cnc3cc(Cl)ccc23)cc(OC)c1OC [compound 50, 50] on GAK (Homo sapiens): pKi was 8.18

Fill in: GAK (Homo sapiens) pKi for COc1cc(Nc2c(C#N)cnc3ccc(Br)cc23)cc(OC)c1OC [compound 45, 45] = 8.64

(I) COc1cc(Nc2c(C#N)cnc3ccc(I)cc23)cc(OC)c1OC [compound 46, 46]
(II) COc1ccc2ncc(C#N)c(Nc3cc(OC)c(OC)c(OC)c3)c2c1 [compound 47, 47]
(III) COc1cc(Nc2c(C#N)cnc3ccc(S(C)(=O)=O)cc23)cc(OC)c1OC [compound 49, 49]
(IV) COc1cc(Nc2c(C#N)cnc3ccccc23)cc(OC)c1OC [compound 43, 43]
Request: Place the items in sequence of falling pKi. Reply with the labels, ordered as the question asks.
Result: II, I, IV, III
